Test system: OVCAR-3 ovarian
assayInfo: NCI tumour cell line growth inhibition, 48 h
quantity: TGI

In the examples that follow, each entry is paired with its recorded TGI.
molecule | TGI
O=C1N=C(Nc2nc(-c3csc(NC4=NC(=O)/C(=C\c5ccccc5)S4)n3)cs2)S/C1=C/c1ccccc1 | > 50 µM
COc1ccc(-c2cc3cc(Cl)cc(Cl)c3oc2=O)cc1OC | > 100 µM
C1=CCCC=CCC1.C[PH+](C)C.C[PH+](C)C.C[PH+](C)C.[Cl-].[Ir] | 77.4 µM
O=C(Nc1nn(C(=O)c2cccnc2)c(=O)s1)c1ccc(Cl)cc1 | > 100 µM
CCOC(=O)c1csc(NC(=O)CCN2CCCC2)n1 | > 100 µM
NC(=O)C1CCN(Cc2c(Cl)c(Cl)c(CN3CCC(C(N)=O)CC3)c(Cl)c2Cl)CC1 | > 100 µM
COc1ccc(-c2cc(=O)c3c(O)c(OC)c(OC)c(OC)c3o2)cc1 | > 100 µM
CNC(=O)CN(CC(=O)O)C(=O)NC | > 100 µM

Problem: Entry under review: C[C@H]1[C@H](C)CC[C@]2(C(=O)OC3OC(CO)C(O)C(O)C3O)CC[C@]3(C)C(=CC[C@@H]4[C@@]5(C)C[C@@H](O)[C@@H]6OC(=O)c7cc(O)c(O)c(O)c7-c7c(cc(O)c(O)c7O)C(=O)OC[C@@]6(CO)[C@@H]5CC[C@]43C)[C@H]12 (some centres undefined) . Reported TGI?
Solution: > 91.4 µM
